- method.description: Cmax value in rat after oral administration at a dose of 10 mg/kg
- Format: ADME, organism-based
- Design: dose 10 mg/kg, route oral
- run.parameters: in vivo
parameter: Cmax (ng/mL)
Expressed in ng/mL, but write only the number.

## Task Provide Cmax value for the following compound: CSCC[C@H](NC(=O)c1ccc(/C=C/c2cccnc2)cc1-c1ccccc1C)C(=O)O
## Result 321

###

- method.description: Half life period in rat after IV administration at a dose of 10 mg/kg
- Assay type: ADME, organism-based
- Set-up: dose 10 mg/kg, route intravenous
- run.parameters: in vivo
parameter: half-life (h)
Expressed in h, but write only the number.

## Task Provide half-life value for the following compound: CSCC[C@H](NC(=O)c1ccc(/C=C/c2cccnc2)cc1-c1ccccc1C)C(=O)O
## Result 2.15
